biological target: His-tagged Sam68 (Src-associated in mitosis, 68 kDa) (human (cDNA from HEK293T cells), UniProt Q07666 1-443); assay: ELISA
Sequence (Q07666 whole entry): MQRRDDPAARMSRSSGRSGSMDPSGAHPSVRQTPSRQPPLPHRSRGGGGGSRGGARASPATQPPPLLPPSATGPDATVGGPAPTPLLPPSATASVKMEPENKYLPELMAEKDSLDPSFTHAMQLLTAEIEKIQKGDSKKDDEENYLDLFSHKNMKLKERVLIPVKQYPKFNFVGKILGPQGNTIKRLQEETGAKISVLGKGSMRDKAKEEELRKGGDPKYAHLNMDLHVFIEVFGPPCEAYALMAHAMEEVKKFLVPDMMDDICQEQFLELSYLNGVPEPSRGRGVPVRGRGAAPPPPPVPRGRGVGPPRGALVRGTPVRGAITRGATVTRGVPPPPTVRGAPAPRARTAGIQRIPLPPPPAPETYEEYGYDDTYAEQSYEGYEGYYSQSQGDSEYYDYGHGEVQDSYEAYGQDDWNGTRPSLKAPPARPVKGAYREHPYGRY
The following binders are shown together with reported pKd values.
Keep in mind that pKd stands for -log10 of concentration in molar terms.

Here's what some known entries look like.
- SH3 domain from p85α, displayed on M13 phage (domain or fragment) AEGYQYRALYDYKKEREEDIDLHLGDILTVNKGSLVALGFSDGQEARPEEIGWLNGYNETTGERGDFPGTYVEYIGR: 7.89
- SH3 domain #2 from Nck1, displayed on M13 phage (domain or fragment) DLNMPAYVKFNYMAEREDELSLIKGTKVIVMEKCSDGWWRGSYNGQVGWFPSNYVTEEGD: 7.51
- SH3 domain from Lyn, displayed on M13 phage (domain or fragment) EQGDIVVALYPYDGIHPDDLSFKKGEKMKVLEEHGEWWKAKSLLTKKEGFIPSNYVAKLNT: 8.10
- SH3 domain from Osteoclast stimulating factor 1, displayed on M13 phage (domain or fragment) GQVKVFRALYTFEPRTPDELYFEEGDIIYITDMSDTNWWKGTSKGRTGLIPSNYVAEQAE: 7.66

Here's the next entry for you.
Prompt: So what does the record say about pKd for SH3 domain #3 from Intersectin 2, displayed on M13 phage (domain or fragment) SVGEEYIALYPYSSVEPGDLTFTEGEEILVTQKDGEWWTGSIGDRSGIFPSNYVKPKDQ ?
Completion: 7.23
